# TEST SYSTEM: Recombinant human KIF18A (1-467 His-tagged) (Homo sapiens)
# Construct: Recombinant human KIF18A (1-467 His-tagged) protein; His
# Sequence (Q8NI77 1-467): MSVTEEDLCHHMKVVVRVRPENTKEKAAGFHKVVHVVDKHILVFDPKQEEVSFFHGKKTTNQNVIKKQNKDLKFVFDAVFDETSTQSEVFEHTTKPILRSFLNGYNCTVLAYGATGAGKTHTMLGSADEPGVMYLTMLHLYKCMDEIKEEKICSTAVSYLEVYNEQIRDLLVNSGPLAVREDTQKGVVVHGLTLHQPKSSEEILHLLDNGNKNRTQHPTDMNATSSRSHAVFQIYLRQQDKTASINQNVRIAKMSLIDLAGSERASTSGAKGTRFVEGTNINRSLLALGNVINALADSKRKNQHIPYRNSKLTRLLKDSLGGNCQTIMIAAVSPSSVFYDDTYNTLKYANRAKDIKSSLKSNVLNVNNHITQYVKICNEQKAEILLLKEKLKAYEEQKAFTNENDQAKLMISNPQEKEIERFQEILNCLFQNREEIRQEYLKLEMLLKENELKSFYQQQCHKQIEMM
# Sequence (P02550 whole entry partner): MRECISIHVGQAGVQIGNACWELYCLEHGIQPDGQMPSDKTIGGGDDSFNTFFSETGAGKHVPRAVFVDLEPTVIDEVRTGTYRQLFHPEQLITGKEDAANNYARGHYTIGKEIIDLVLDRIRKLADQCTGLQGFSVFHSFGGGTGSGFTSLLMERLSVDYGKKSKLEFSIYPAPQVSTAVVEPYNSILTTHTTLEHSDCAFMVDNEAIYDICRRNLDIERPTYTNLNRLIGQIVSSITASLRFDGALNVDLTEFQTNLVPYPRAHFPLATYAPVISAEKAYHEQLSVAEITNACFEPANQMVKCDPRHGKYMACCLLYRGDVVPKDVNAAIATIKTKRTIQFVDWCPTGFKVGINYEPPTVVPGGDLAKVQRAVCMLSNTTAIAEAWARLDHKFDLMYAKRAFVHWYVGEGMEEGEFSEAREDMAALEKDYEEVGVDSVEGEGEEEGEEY
# Sequence (P02554 whole entry partner): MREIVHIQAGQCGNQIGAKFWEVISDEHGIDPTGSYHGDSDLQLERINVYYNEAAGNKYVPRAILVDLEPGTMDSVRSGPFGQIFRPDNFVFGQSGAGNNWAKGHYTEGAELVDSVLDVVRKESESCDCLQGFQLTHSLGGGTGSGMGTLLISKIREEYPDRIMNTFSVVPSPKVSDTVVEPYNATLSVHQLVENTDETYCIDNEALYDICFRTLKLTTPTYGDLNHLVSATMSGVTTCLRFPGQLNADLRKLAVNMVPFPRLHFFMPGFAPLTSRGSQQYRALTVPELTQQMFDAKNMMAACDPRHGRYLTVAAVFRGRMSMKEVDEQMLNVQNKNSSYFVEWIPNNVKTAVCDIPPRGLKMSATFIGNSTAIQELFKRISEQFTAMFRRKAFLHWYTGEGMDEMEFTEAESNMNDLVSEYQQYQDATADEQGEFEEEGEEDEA
# PROTOCOL DETAILS: KIF18A Enzyme Assay: microtubule-stimulated ATPase activity (ADP-Glo)
# MEASUREMENT CONTEXT: 30 nM KIF18A, 30 μg/mL pig microtubules, ATP 75 μM (Km), ADP-Glo luminescence
MEASUREMENT NAME: IC50 (nM)
State the answer as a number, implicitly in nM.

Suppose we examine the compound C[C@@H]1CN(c2cccc(NC(=O)c3ccc(S(=O)(=O)CCO)cc3N3CCC4(CC3)CC4)n2)CCO1 ; what IC50 value has been reported?
32

Suppose we examine the compound Cc1cc(NC(=O)c2ccc(NS(C)(=O)=O)cc2N2CCC3(CC2)CC3)nc(N2CCC(F)(F)CC2)c1 ; what IC50 value has been reported?
49

Suppose we examine the compound C[C@@H]1CN(c2cccc(NC(=O)c3ccc(N4CCS4(=O)=O)cc3N3CCC4(CC3)CC4)n2)CCO1 ; what IC50 value has been reported?
98

Suppose we examine the compound CCS(=O)(=O)Nc1ccc(C(=O)Nc2cc(C)cc(N3CCO[C@H](C)C3)n2)c(N2CCC3(CC2)CC3)c1 ; what IC50 value has been reported?
72
